For each entry below, report its Her2 level value.
- system_under_test: Receptor tyrosine-protein kinase erbB-2 (Homo sapiens) (UniProt P04626)
- Sequence (P04626 whole entry, looked up): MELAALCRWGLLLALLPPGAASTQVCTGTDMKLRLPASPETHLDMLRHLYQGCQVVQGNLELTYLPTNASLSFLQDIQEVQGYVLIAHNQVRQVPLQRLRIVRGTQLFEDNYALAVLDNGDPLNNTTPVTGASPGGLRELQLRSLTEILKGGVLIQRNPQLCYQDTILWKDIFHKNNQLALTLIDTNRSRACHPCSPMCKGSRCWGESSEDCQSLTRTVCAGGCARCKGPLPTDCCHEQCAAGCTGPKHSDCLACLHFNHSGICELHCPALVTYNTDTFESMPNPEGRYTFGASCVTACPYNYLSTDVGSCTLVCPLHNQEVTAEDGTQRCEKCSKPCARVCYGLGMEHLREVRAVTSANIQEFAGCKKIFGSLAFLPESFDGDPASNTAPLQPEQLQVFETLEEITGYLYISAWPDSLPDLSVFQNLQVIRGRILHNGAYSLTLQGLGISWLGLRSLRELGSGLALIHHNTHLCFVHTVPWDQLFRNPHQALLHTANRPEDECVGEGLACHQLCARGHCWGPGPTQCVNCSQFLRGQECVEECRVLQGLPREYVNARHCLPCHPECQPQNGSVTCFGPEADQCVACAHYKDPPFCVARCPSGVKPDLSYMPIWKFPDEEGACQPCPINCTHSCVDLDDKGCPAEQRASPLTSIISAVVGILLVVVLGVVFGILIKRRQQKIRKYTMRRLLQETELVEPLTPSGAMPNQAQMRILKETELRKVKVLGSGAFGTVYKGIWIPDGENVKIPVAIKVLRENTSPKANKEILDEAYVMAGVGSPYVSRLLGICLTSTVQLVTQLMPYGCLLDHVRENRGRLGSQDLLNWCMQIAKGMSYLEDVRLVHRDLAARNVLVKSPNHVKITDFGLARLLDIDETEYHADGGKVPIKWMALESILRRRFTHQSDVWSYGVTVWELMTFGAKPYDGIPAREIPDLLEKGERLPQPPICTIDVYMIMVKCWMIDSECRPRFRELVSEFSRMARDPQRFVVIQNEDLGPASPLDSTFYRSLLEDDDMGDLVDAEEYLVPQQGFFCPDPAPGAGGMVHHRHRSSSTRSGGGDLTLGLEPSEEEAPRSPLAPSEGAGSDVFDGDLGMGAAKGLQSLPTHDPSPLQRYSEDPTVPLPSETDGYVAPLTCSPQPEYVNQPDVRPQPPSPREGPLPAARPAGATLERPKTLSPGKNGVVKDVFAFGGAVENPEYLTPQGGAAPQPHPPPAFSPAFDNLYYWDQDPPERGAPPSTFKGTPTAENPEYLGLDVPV
- protocol_summary: Her2 expression decrease, cell viability multiplex – SKBR3 breast tumor cells, AlphaScreen, ATP viability, primary screen (AID 461);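 further: lower value means less Her2 protein in the cells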
- run_conditions: 18-24 h, at 10 µM, stronger effect = lower value
Numbers only, in %.

Here is how some compounds turned out for Her2 level.
COc1ccc(N2C(=O)CCC(C(=O)N3CCCCC3)C2c2ccc(OC)c(OC)c2)cc1 (stereo unspecified): 90.5
CCOC(=O)N1CCC(NC(=O)c2ccc3c(c2)N(CC)CCS3)CC1: 91.5
COc1ccc(OC)c(NC(=O)CSc2nnc(Cc3cccn3C)n2-c2ccc(F)cc2)c1: 90

Look at each compound and report its Her2 level.
1. COc1ccc(-c2nc(CS(=O)CC(=O)NCc3ccccn3)c(C)o2)cc1 (stereo unspecified)
2. COc1ccc(C2CC(c3ccc(Cl)cc3Cl)Nc3nc(N)nn32)cc1 (stereo unspecified)
3. CN1CCN(c2nc3c(c(=O)[nH]c(=O)n3C)n2CCSc2nc3ccccc3s2)CC1
4. Cc1ccc(CSc2nc3c(c(=O)[nH]2)CCC3)cc1

Result:
1. 92.5
2. 92
3. 90.5
4. 91.5

# batch: return Her2 level for each of the 2 compounds below
1. CC(C)(C)SCCNC(=O)CN1C(=O)c2ccccc2S1(=O)=O
2. Oc1ccc2ccccc2c1CN1CCN(c2ccccc2F)CC1

Result:
1. 92.5
2. 90

Please give Her2 level, item by item, for the list that follows.
1. C=CCn1c(COc2ccc(CC)cc2)nnc1SC/C(O)=C(\C#N)c1nc2ccccc2[nH]1
2. COc1ccc(C(=O)NCc2nnc(SC)n2C2CCCCC2)cc1

Result:
[88, 91]
